Item-by-item account of melting point

q: Would you kindly share the measured melting point for "COC(=O)c1sc2c(c1O)CSC2" ?
a: 133 to 137 °C

Others:
q: GET /values?readout=melting point&item= "CC(=O)c1cccc2c1Cc1ccccc1-2"
a: 84 to 87 °C

q: # query: melting point of entry "O=C(NC(=O)c1c(F)cccc1F)Nc1cc(Cl)cc(C(F)(F)F)c1F"
a: 187 to 189 °C

q: So what's the measured melting point for this one? "CC(C)(C)n1nc(Nc2ccccc2)c(C#N)c1N"
a: 123 to 125 °C

q: Suppose we examine the compound O=C(O)[C@@H]1C[C@H]1c1ccc([N+](=O)[O-])cc1 (relative stereo) ; what melting point value has been reported?
a: 195 to 196 °C

q: What value of melting point has been recorded for this entry: "Cc1cc(NC(=O)C=Cc2ccccc2)c(NC(=O)C=Cc2ccccc2)cc1C"
a: 244 °C

q: Give the measured melting point of "COc1ccc2[nH]cc(/C(C#N)=C/c3cccc(C#N)c3)c2c1" .
a: 149 °C

q: Name the reported melting point value associated with the compound CC(Cc1sc(Br)cc1Cl)NC(=O)c1cn(C)nc1C(F)F (stereo not given)
a: 157 to 158 °C

q: Recorded melting point for "CCc1cccc(CC)c1NC(=NCc1cccc(CCl)c1)Nc1c(CC)cccc1CC" , please?
a: 83.5 to 86.5 °C

###

# reported melting point; entries follow

Some molecules with recorded melting point:
q: Recorded melting point of "Nc1ccc2c(c1)C(=O)CC1(CCN(CCc3ccc4nonc4c3)CC1)O2" , please.
a: 191 to 193 °C

q: # query: melting point of entry "Cn1c(C(=O)O)cc(=O)c2oc3ccccc3c(=O)c21"
a: 220 °C

q: Could you tell me which melting point is on file for "CC(C)CS(=O)(=O)c1ccc(F)c(C#Cc2cc(Cl)ccc2OCC(=O)O)c1" ?
a: 141 to 143 °C

Continuing:
q: So what's the measured melting point for this one? "COc1cc2ncnc(N3CCN(C(=O)Nc4ccc5[nH]ccc5c4)CC3)c2cc1OC"
a: 209 to 210 °C

q: What measured melting point goes with "COC(=O)c1ccccc1CS(N)(=O)=O" ?
a: 79 to 81 °C

q: If you can, please state the reported melting point value of "Cc1cccc(C(=O)CCSC(=S)Nc2ccc(Cl)cn2)c1" .
a: 153 °C

q: Name the recorded melting point for "NC(=O)c1ccc2c(O)cncc2c1" .
a: > 250 °C

q: Using the record for CCc1c(C(C)C)cc(C(C)C)c(C(C)O)c1-c1ccc(F)cc1 (single isomer, unassigned; (+)) , report its melting point.
a: 143 to 145 °C

q: Item "CC(=O)NC[C@H]1CN(c2ccc(N3CCC(=C(C#N)c4cccs4)CC3)c(F)c2)C(=O)O1" has what recorded melting point?
a: 260 to 263 °C

q: Requested read-out: melting point. Entry: "CCOC(=O)CCCN1C(=O)N(c2ccc(C#N)c(C(F)(F)F)c2)C(=O)C12CCOCC2"
a: 129 to 130 °C

###

Listed here are compounds together with their documented melting point.

q: I would be grateful if you could share the reported melting point for "O=C(O)c1c[n+]([O-])cc2ccccc12" .
a: 280 to 283 °C

q: Report melting point for "CS(=O)(=O)N1CCC(NC(=O)Nc2cccc(C(F)(F)F)c2)CC1" please.
a: 226 to 229 °C

q: Quick one: melting point of COc1ccc(C(=O)N2CCCCc3cc(C4=NNC(=O)SC4C)ccc32)cc1OC (stereo unspecified) ?
a: 207 °C

q: Tell me the measured melting point of "Cc1nsc(NC(=O)Cc2ccc(O)c(N)c2)c1Cl" , please.
a: 239 to 243 °C

q: // lookup melting point for "CC(C)CN1C(=O)C(C)(C)C(=O)Nc2ccc(C#N)cc21"
a: 219 to 220 °C

Next:
q: Which melting point is reported for this compound? Cc1ccccc1CCC(=O)N(C)C(C)C(O)c1ccccc1 (stereo unspecified)
a: 136 to 137 °C

Every entry's value here was drawn from a melting point compilation (Tetko et al.; mined from patent text by program, amines drawn as free bases though some values may be those of a salt).
